Measured switch fluorescence ratio, listed per entry for reference.
Test system: ATP;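 note: ATP exposure 15 min at 22 °C before imaging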
Test: switch fluorescence ratio, 500 uM ATP over buffer (Cy3 cluster intensity, sum of 5 cycles each) (fold (ratio)); higher = stronger signal-on switching upon ATP binding; sequences stand for … in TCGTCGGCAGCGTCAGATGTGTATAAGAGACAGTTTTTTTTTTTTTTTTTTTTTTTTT…TC
Details: aptamer strand: ATP DNA aptamer (quencher-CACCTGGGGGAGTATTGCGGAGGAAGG + anchor), 100 nM annealed; ATP concentration: 500 uM

ordered-residues | switch fluorescence ratio
TGGAGCCAGT | 1.01
AGGGCGTACA | 0.992
TTAGAGGACG | 1.02
AGGAGAGACC | 0.985
GCGGGTCAGC | 1.01
ATCGGCGGGA | 0.986
GGATAAAGGT | 0.978
CATGGATACG | 1.01
ATAAAGCGGC | 0.994
TTCATGTCAT | 1.01
GGGGTGTTCT | 1.02
GGGGTTAGTC | 1.02
GGGTAAATTA | 0.989
GTATTTCATA | 1.01
GAATGGCTAG | 1.01
AGAGGAGTTA | 0.985
GGATTGAGTT | 0.999
GCGAATGCGG | 1.01
CGAAAAGTTT | 0.994
AAAATGAACG | 1.08
TGGATTGGGG | 0.978
GAGAGAATGG | 0.994
TCAACTATTT | 0.972
ATGGGTCTAT | 1
AGCGGGTTAC | 1.09
ACACTTGCGC | 1.02
TCCCCTTGCT | 1.03
TTGCGTTGGC | 0.984
TCGGGAAGGG | 0.991
AAAAATGGTG | 0.981
TCCTAAACGG | 0.988
TGGGTTGATA | 0.996
GAGTCGGGGG | 0.985
CTTTGTGCGT | 0.99
TAAGATGTCA | 1.02
AAATTCAATA | 1
TTGAGTTTAT | 1.02
GGAGTAAAGG | 1.06
AAGTTCTTTA | 1.02
AAAAAATAGG | 1.01
AGGGCAATAT | 3.84
AAAGAGTAGT | 0.962
TTAAATGTGT | 1.02
GATAGCTTAG | 0.993
CTATGTATTG | 0.97
TAGATATGAG | 1.01
ATGAGTAGGG | 1.02
GGGCTGTCTG | 0.963
TTAGGTTGGC | 1
ACGGGTGTCC | 0.995
TTGTGCTGGT | 1
AACAGTTGAA | 1.01
TTAGAGTTTA | 0.975
TGGGTTCGCG | 0.988
GGGAGGCGAG | 1.02
TGGCCTAGG | 1
TTGCTTTTGC | 1
GGATTAAGTG | 0.962
AAAAGCGCT | 0.999
TCCCGGGGGG | 1.14
ATTCGATTTT | 0.999
GGGATGGGCA | 1.01
TTCGTGTTCT | 1
AAAGTTTGG | 0.977
TGGTTTTACG | 1.02
TTTAGCGCGG | 1
CTGGAAGGGG | 1.04
CTTTATTGGG | 0.972
TACAAATTGA | 1.02
ATGGGAAACT | 1.01
AGGTTAACTA | 1.02
TTTTTCTTAT | 1
GTAGGAAGTG | 0.994
CAGCTAGATA | 0.999
TTTGTTCACA | 1.06
AAGTTAATCT | 0.988
TAGGTTCGAG | 0.985
ATCGGGGATT | 1.01
ACGTGGTGTT | 1

* * *

Tested on: ATP;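 note: ATP exposure 15 min at 22 °C before imaging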
Assay: switch fluorescence ratio, 500 uM ATP over buffer (Cy3 cluster intensity, sum of 5 cycles each) (fold (ratio)); higher = stronger signal-on switching upon ATP binding; sequences stand for … in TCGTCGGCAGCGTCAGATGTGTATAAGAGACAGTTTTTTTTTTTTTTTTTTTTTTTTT…TC
Settings: aptamer strand: ATP DNA aptamer (quencher-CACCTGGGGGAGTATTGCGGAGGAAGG + anchor), 100 nM annealed; ATP concentration: 500 uM

ordered-residues | measured-target | switch fluorescence ratio
GTGATGACAT | ATP | 1
CAGATCTGTA | ATP | 1.01
TATGAGCCTG | ATP | 0.968
TTGAATGTCA | ATP | 0.968
AGTTTTTGCT | ATP | 0.974
GAATCGGGGT | ATP | 0.992
CAGGGGGACG | ATP | 0.923
TTGTACCAAA | ATP | 0.992
TGGGGAGAGG | ATP | 1.02
CTTACGGGCA | ATP | 1.03
TTGTGTAGGC | ATP | 0.984
CCGTTGTCCA | ATP | 1.02

* * *

Tested on: ATP;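 note: ATP exposure 15 min at 22 °C before imaging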
Assay: switch fluorescence ratio, 500 uM ATP over buffer (Cy3 cluster intensity, sum of 5 cycles each) (fold (ratio)); higher = stronger signal-on switching upon ATP binding; sequences stand for … in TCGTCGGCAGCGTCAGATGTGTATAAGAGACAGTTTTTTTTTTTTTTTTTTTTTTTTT…TC
Conditions: aptamer strand: ATP DNA aptamer (quencher-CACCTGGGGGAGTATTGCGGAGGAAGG + anchor), 100 nM annealed; ATP concentration: 500 uM

ordered-residues | measured-target | switch fluorescence ratio
TTATTCGTTG | ATP | 0.99
GGTTAAGTAG | ATP | 1
AGCGGGGTTC | ATP | 1.02
GAGGGATGGT | ATP | 1.01
GGGGTTCATC | ATP | 0.995

* * *

Test system: ATP;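 note: ATP exposure 15 min at 22 °C before imaging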
Assay: switch fluorescence ratio, 500 uM ATP over buffer (Cy3 cluster intensity, sum of 5 cycles each) (fold (ratio)); higher = stronger signal-on switching upon ATP binding; sequences stand for … in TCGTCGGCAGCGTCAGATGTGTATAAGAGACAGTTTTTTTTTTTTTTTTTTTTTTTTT…TC
Conditions: aptamer strand: ATP DNA aptamer (quencher-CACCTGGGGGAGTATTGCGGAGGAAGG + anchor), 100 nM annealed; ATP concentration: 500 uM
observable: switch fluorescence ratio

ordered-residues | observable | value-reported
GAGAATGTGT | switch fluorescence ratio | 0.994
GTTGGAATGG | switch fluorescence ratio | 1.01
CAGTAGTTTT | switch fluorescence ratio | 1
GGTGGGTGTT | switch fluorescence ratio | 0.951
AATAAATTTA | switch fluorescence ratio | 1
GTAAGATGTG | switch fluorescence ratio | 1.03
ACTAGAGGTT | switch fluorescence ratio | 1.06
TTGACAATGG | switch fluorescence ratio | 0.99
TTATGCTTGG | switch fluorescence ratio | 0.976
GAGTCAGAAT | switch fluorescence ratio | 1.01
CATTCAGTTT | switch fluorescence ratio | 0.949
CGCTTGCCAG | switch fluorescence ratio | 0.972
GACGGGGCCC | switch fluorescence ratio | 1
TACGCTGGGG | switch fluorescence ratio | 1.02
AAGCAGCTGT | switch fluorescence ratio | 1.01
ACATGAAGGT | switch fluorescence ratio | 1.01
CAAAATAAGA | switch fluorescence ratio | 1.01
GTTTTTGCTA | switch fluorescence ratio | 1.01
TGCATGTAGG | switch fluorescence ratio | 1.01
TGGATTTAGT | switch fluorescence ratio | 0.982
CGTCTTCCTG | switch fluorescence ratio | 1
ACAAGGGGGA | switch fluorescence ratio | 1.02
GGCCGCGGCC | switch fluorescence ratio | 1
TACTAGAACT | switch fluorescence ratio | 1.03
GTGGGGGCGT | switch fluorescence ratio | 1
CTTACCTTGC | switch fluorescence ratio | 1.99
AACCGATGTG | switch fluorescence ratio | 1.01
ATAATCACCT | switch fluorescence ratio | 1.23
TTAGATGGGA | switch fluorescence ratio | 1
ATATTGCTGG | switch fluorescence ratio | 0.972
AGGTGATGTG | switch fluorescence ratio | 0.998
TCTTTGCAGC | switch fluorescence ratio | 1.02
AGCAATTGCT | switch fluorescence ratio | 1.05
GCTAAAAGTT | switch fluorescence ratio | 0.995
GACGACGACA | switch fluorescence ratio | 2.5
AGGATGGGTG | switch fluorescence ratio | 0.991
TTTAGGTTGC | switch fluorescence ratio | 0.982
ATAATGTATA | switch fluorescence ratio | 0.983
CTTGTCAGGG | switch fluorescence ratio | 0.975
AGGGTGTGAT | switch fluorescence ratio | 1.04
CGATATTGCC | switch fluorescence ratio | 0.991
GCTCTTGTGC | switch fluorescence ratio | 1.01
GTCAGGGGGT | switch fluorescence ratio | 1.04
AAGACGGATT | switch fluorescence ratio | 0.995
TGGGATTGGG | switch fluorescence ratio | 0.974
TTAGTTATTG | switch fluorescence ratio | 1
CAGGTTGTGG | switch fluorescence ratio | 0.992
AACGAAAGGC | switch fluorescence ratio | 1.19
AATTCCTGGT | switch fluorescence ratio | 1.04
TGGGACATGG | switch fluorescence ratio | 0.995
GATAGAGCAT | switch fluorescence ratio | 1.01
GGGTCTACCG | switch fluorescence ratio | 0.991
TGGCCAGGGT | switch fluorescence ratio | 1.06
CGATGCGGTG | switch fluorescence ratio | 1.05
GCTCTTTAGA | switch fluorescence ratio | 0.962
GGAGTACGGG | switch fluorescence ratio | 0.999
TGTGTTTGAG | switch fluorescence ratio | 0.972
ATGAGATAGT | switch fluorescence ratio | 1
TTGAGTACTA | switch fluorescence ratio | 1.01
GGACTAAAAT | switch fluorescence ratio | 1.08
TGGGAGGGGA | switch fluorescence ratio | 1.03
GCATTATGTT | switch fluorescence ratio | 0.987
CAAGTGCTGT | switch fluorescence ratio | 0.98
ATGGATAATG | switch fluorescence ratio | 0.977
CTTTTTGGTA | switch fluorescence ratio | 0.997
CTGAAATTTT | switch fluorescence ratio | 1.02
CTTACGTCTG | switch fluorescence ratio | 1.01
